- Tested on: Staph. aureus S18713
// reported MIC for each item listed
Your answer should be a plain number; it is taken to be in µg/mL.

> print(dat)
                         structure.notation           test.system  attribute.measured  unit.annotation  test.result
1  CC1(C)S[C@@H]2[C@H](NC(=O)[C@H](NC(=O)c3ccc(-c4ccc(NC(=O)C(F)(F)F)cc4)[nH]c3=O)c3ccccc3)C(=O)N2[C@H]1C(=O)O  Staph. aureus S18713                 MIC            µg/mL          200
2  CC(=O)Nc1ccc(-c2ccc(C(=O)N[C@@H](C(=O)N[C@@H]3C(=O)N4[C@@H]3SC(C)(C)[C@@H]4C(=O)O)c3ccc(O)cc3)c(=O)[nH]2)cc1  Staph. aureus S18713                 MIC            µg/mL          200
3  CC(=O)Nc1ccc(-c2ccc(C(=O)N[C@@H](C(=O)N[C@@H]3C(=O)N4[C@@H]3SC(C)(C)[C@@H]4C(=O)O)c3ccccc3)c(=O)[nH]2)cc1  Staph. aureus S18713                 MIC            µg/mL          100

Provide value of MIC for this record tested with Staph. aureus S18713: CC1(C)S[C@@H]2[C@H](NC(=O)[C@H](NC(=O)c3ccc(-c4ccc(NC(=O)C(F)(F)F)cc4)[nH]c3=O)c3ccc(O)cc3)C(=O)N2[C@H]1C(=O)O
100

Find the measured MIC: item CCNC(=O)Nc1ccc(-c2ccc(C(=O)N[C@@H](C(=O)N[C@@H]3C(=O)N4[C@@H]3SC(C)(C)[C@@H]4C(=O)O)c3ccc(O)cc3)c(=O)[nH]2)cc1 , target or system Staph. aureus S18713.
50

Provide value of MIC for this record tested with Staph. aureus S18713: CC1(C)S[C@@H]2[C@H](NC(=O)[C@H](NC(=O)c3ccc(-c4ccc(NC(=O)OCc5ccccc5)cc4)[nH]c3=O)c3ccccc3)C(=O)N2[C@H]1C(=O)O
50

# get_value(readout= MIC, system= Staph. aureus S18713) for CCOC(=O)C(=O)Nc1ccc(-c2ccc(C(=O)N[C@@H](C(=O)N[C@@H]3C(=O)N4[C@@H]3SC(C)(C)[C@@H]4C(=O)O)c3ccc(O)cc3)c(=O)[nH]2)cc1
50

Give MIC (Staph. aureus S18713) of the following compound: COC(=O)Nc1ccc(-c2ccc(C(=O)N[C@@H](C(=O)N[C@@H]3C(=O)N4[C@@H]3SC(C)(C)[C@@H]4C(=O)O)c3ccc(O)cc3)c(=O)[nH]2)cc1
100
